Target: hStau1 deltaN (dsRBD2 removed) (Homo sapiens, UniProt O95793 182-577)
Sequence (O95793 182-577, stated change not applied): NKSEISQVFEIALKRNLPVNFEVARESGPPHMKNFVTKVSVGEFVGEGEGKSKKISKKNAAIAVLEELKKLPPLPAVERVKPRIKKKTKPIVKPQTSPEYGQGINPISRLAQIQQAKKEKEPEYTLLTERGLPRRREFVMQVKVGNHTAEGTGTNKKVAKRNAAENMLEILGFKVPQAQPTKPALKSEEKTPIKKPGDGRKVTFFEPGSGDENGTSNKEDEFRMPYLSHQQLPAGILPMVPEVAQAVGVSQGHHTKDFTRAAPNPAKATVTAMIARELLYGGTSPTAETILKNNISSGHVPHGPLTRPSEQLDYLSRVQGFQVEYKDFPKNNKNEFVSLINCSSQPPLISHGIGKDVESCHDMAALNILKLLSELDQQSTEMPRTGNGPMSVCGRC
Experiment: fluorescence anisotropy; FA: 10 nM 5'-FAM RNA, 20 mM Hepes pH 7.5, 150 mM KCl, RT (19-21 C); EMSA: 1 uM RNA, same buffer, 45 min on ice
Conditions: protein: recombinant; label: 5'-6-FAM on sense strand; blunt, two G-U wobbles
recorded-endpoint: Kd (nM)
Quick note: give the figure in nM, leave out the unit.

Q. // lookup Kd for ARF1 SBS (dsRNA) RNA 1: UGAGUGCCAGAAGCUGCCUC RNA 2: GAGGCAGUUUCUGGUACUCA
A. 9
